target: αvβ3 (Homo sapiens, UniProt P05106+P06756); assay: Inhibition of αvβ3-mediated binding in a specific cell adhesion assay; type: cell-based; details: at 100 nM
Sequence (P06756 31-889 limits assumed): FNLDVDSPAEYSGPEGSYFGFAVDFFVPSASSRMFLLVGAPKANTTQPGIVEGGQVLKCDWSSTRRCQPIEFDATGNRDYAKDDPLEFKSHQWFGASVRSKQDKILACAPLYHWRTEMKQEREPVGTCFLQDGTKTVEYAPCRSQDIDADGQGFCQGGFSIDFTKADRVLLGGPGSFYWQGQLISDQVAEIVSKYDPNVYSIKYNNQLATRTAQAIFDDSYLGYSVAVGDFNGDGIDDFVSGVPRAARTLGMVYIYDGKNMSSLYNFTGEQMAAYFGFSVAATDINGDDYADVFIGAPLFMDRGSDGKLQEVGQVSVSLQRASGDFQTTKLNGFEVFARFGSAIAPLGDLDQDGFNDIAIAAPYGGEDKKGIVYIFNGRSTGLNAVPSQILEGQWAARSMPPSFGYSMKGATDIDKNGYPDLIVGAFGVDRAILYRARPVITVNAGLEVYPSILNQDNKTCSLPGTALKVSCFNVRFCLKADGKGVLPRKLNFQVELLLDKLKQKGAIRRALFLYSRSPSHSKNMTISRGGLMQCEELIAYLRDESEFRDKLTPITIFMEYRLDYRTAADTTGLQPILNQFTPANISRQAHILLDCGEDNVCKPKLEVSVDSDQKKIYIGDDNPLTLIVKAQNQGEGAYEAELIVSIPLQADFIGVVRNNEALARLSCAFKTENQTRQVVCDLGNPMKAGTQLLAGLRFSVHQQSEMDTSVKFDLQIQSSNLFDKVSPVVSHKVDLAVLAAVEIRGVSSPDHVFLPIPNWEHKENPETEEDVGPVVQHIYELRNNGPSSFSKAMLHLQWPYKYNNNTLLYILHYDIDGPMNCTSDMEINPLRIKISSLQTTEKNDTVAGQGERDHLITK
Sequence (P06756 891-1048 partner limits assumed): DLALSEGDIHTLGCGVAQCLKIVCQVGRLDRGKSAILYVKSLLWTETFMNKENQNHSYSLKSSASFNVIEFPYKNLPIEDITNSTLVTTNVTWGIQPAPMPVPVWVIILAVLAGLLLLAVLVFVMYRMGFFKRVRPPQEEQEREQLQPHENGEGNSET
Sequence (P05106 27-788): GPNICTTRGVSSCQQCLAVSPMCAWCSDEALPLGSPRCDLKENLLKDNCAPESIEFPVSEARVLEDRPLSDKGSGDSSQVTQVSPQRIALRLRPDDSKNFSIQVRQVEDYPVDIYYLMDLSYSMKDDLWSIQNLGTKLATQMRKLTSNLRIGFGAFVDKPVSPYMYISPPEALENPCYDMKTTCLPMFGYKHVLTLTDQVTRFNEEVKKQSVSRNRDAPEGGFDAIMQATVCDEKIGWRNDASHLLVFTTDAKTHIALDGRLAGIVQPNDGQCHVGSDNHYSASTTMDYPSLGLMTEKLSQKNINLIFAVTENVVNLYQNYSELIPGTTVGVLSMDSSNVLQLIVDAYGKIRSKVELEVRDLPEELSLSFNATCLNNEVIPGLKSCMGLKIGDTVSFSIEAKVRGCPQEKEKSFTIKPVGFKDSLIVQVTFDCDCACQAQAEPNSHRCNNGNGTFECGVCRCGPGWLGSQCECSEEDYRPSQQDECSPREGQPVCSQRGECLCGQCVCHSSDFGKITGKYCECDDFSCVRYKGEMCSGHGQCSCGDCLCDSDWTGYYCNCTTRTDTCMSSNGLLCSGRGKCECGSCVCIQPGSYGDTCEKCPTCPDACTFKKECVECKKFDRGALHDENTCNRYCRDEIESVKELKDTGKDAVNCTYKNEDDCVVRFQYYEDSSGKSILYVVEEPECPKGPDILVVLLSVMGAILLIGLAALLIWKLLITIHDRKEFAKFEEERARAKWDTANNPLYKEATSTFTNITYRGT
measured quantity: inhibition at 0.1 µM (%)

> print(dat)
                      smiles.representation  obs.value
1  COC(=O)Cc1cc(I)c(Oc2cc(I)c(OCCCN3CCSCC3)c(I)c2)c(I)c1          0
2  CCN(CC)CCCOc1c(I)cc(Oc2c(I)cc(CC(=O)OC)cc2I)cc1I          1
3  COC(=O)Cc1cc(I)c(Oc2cc(I)c(OCCCNCc3cccnc3)c(I)c2)c(I)c1          0
4  COC(=O)Cc1cc(I)c(Oc2cc(I)c(OCCCN)c(I)c2)c(I)c1          0
5  CC(C)(C)OC(=O)NCCCOc1c(I)cc(Oc2c(I)cc(CC(=O)O)cc2I)cc1I         66

FYI, the data here is from patent US9580395B2.
